Target: Cytochrome P450 3A4 (Homo sapiens) (UniProt P08684)
Sequence (P08684 whole entry, looked up): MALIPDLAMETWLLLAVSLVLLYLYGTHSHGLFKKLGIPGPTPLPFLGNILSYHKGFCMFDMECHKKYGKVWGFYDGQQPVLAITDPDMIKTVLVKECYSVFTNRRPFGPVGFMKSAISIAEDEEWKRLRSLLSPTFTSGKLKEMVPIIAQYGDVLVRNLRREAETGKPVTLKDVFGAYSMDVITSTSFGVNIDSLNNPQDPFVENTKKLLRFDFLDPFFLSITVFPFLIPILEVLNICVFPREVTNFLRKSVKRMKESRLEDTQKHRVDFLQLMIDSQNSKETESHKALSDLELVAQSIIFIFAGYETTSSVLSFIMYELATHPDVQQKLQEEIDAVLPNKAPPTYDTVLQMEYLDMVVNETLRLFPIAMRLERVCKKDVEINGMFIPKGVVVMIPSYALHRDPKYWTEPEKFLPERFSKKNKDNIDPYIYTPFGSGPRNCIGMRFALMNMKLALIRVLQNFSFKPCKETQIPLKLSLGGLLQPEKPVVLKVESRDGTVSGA
Assay: Cytochrome panel assay with activity outcomes
Conditions: recombinant CYP, pro-luciferin dealkylation, luminescence, p450-cyp3a4; series mostly up to 57.1 µM
About 5,100 (32%) of roughly 16,000 compounds were called active. Roughly 25% stayed inconclusive and do not appear here. Calls come from the whole dose curve; as a rule, active = well fitted curve in the direction sought with a large enough effect; inconclusive = small, poorly fitted or top-dose-only effect, or effect the other way; inactive = no such curve, though single readings can be large or run the other way. Some of the results follow.
Choose one outcome from this list and give only that: class 1 (active), class 0 (inactive)

Here are 5 molecules together with their reported answers.
CS(=O)(=O)N1CCC2(CC1)CN(Cc1nccs1)C2; class 0
Cc1ccc(=O)n(-c2ccccc2)c1; class 0
CS(=O)(=O)N1CCC2(CCN(Cc3nccs3)CC2)CC1; class 0
O=S(=O)(c1ccccc1)N1CCC2(CCN(Cc3nccs3)CC2)CC1; class 0
Cn1cc(/C=C2/SC(=O)N(CC(=O)Nc3ccc4c(c3)OCO4)C2=O)c2ccccc21; class 1

Incoming: What call does the record list for Cc1ccccc1/C=C1\OC(=O)c2ccccc21 ?
Outgoing: class 0

Incoming: How was O=S(=O)(c1ccccc1)N1CCC2(CC1)CN(Cc1nccs1)C2 classified in this test?
Outgoing: class 0

Incoming: Check the results log: what was the call for Cc1ccc(/C=C2\OC(=O)c3ccccc32)cc1 ?
Outgoing: class 1

Incoming: Dear colleague, could you share the recorded outcome for Cc1ccsc1/C=C1/SC(=O)N(CC(=O)N2CCOCC2)C1=O when you have a moment?
Outgoing: class 0

Incoming: For CC1CCOC2(O1)C(=O)N(CN1CCN(c3ccccc3F)CC1)c1ccccc12 (stereo unspecified) , what call appears in the results of this test?
Outgoing: class 0

Incoming: Write down the call the test reported for this molecule. Item: O=S(=O)(c1ccccc1)N1CCC2(CCCN(Cc3nccs3)C2)CC1
Outgoing: class 1

====

Target: Cytochrome P450 3A4 (Homo sapiens)
Assay: Cytochrome panel assay with activity outcomes
Details: recombinant CYP, pro-luciferin dealkylation, luminescence, p450-cyp3a4; series mostly up to 57.1 µM
Hit rate of the full screen: of about 16,000 compounds, about 5,100 (32%) were called active. Inconclusive results (about 25%) are left out. Calls follow the shape of the dose curve; as a rule, active = well fitted curve in the direction sought with a large enough effect; inconclusive = small, poorly fitted or top-dose-only effect, or effect the other way; inactive = no such curve, though single readings can be large or run the other way. The list shows a part of the results.
// classify into yes (1) = active, no (0) = inactive

Consider the following illustrative entries.
N[C@H](CCCP(=O)(O)O)C(=O)O; no (0)
CCN(CC)c1nc2ccccc2[nH]1; no (0)
O=[N+]([O-])c1ccc(/C=N/Nc2cc(Cl)nc(-c3ccccc3)n2)cc1; no (0)
CO[C@@H]1COC(=O)CCC[C@@H](C)[C@H](OC)COC(=O)[C@H](Cc2ccccc2)NC(=O)C/C=C\[C@H]1C; yes (1)
CCOC(=O)c1c(NC(=O)/C=C/c2ccc3c(c2)OCO3)sc(C)c1CC; yes (1)

From here, focus on the item given below.
Incoming: Please share the test call associated with COCCNc1ncnc2ccc(-c3ccccc3OC)cc12 .
Outgoing: yes (1)

====

Biological target: Cytochrome P450 3A4 (Homo sapiens)
Test: Cytochrome panel assay with activity outcomes; for activity, negative = inhibition: % is set by controls: 0 for no effect and ±100 for the full control effect
Conditions: recombinant CYP, pro-luciferin dealkylation, luminescence, p450-cyp3a4; series mostly up to 57.1 µM
Hit rate of the full screen: of about 16,000 compounds, about 5,100 (32%) were called active. Inconclusive results (about 25%) are left out. This is one part of the list.
recorded metric: activity, negative = inhibition

Below, each entry is followed by its recorded activity, negative = inhibition result.
O=C(O)[C@H](Cc1ccc(O)c([N+](=O)[O-])c1)N1C(=O)c2ccccc2C1=O; 6.92% [at 11.4 µM] (inactive)
CCN(CC)C(=O)CSc1nc2ccc(NC(=O)CSc3nnc(COc4ccccc4C)n3C)cc2s1; -17.9% [at 2.29 µM] (inactive)
Cc1ccc(-c2c(C#N)c(N)n(-c3ccccc3)c(=O)c2C#N)cc1; -3.64% [at 2.29 µM] (inactive)
Cc1sc(N/N=C/C=C/c2ccccc2)nc1-c1ccccc1; -9.33% [at 11.4 µM] (inactive)
O=C(NNC(=O)c1cccnc1)Nc1cccc2ccccc12; 14.6% [at 0.457 µM] (inactive)

# map each compound to its activity, negative = inhibition
1. CC(C)Oc1ccc2ccccc2c1C=O
2. CN1CCN(CCCBr)CC1
3. CCn1c(C)c(C)c2cc(C(=O)Nc3cccc(Cl)c3)ccc21
4. O=C1O[C@@H]([C@H](O)[C@H](O)[C@H](O)CO)[C@@H](O)[C@@H]1O

Outgoing:
["6.45% [at 2.29 µM] (inactive)", "9.1% [at 11.4 µM] (inactive)", "10.3% [at 2.29 µM] (inactive)", "-1% [at 11.4 µM] (inactive)"]

Need activity, negative = inhibition for each of these compounds.
1. CN(C)CCCN1c2ccc(O)cc2Sc2ccc(Cl)cc21
2. CC(=O)c1cn(CCCCCCCCCCn2cc(C(C)=O)c(=O)[nH]c2=O)c(=O)[nH]c1=O

Outgoing:
-18.1% [at 11.4 µM] (inactive)
2.06% [at 2.29 µM] (inactive)
